# System tested: M-type K+ (KM) channel, KCNQ2 (KV7.2)/KCNQ3 (KV7.3) (Rattus norvegicus, UniProt O88943+O88944)
# Construct: native channel in pituitary GH3 cells; with KCNQ3 (KV7.3)
# Sequence (O88943 whole entry): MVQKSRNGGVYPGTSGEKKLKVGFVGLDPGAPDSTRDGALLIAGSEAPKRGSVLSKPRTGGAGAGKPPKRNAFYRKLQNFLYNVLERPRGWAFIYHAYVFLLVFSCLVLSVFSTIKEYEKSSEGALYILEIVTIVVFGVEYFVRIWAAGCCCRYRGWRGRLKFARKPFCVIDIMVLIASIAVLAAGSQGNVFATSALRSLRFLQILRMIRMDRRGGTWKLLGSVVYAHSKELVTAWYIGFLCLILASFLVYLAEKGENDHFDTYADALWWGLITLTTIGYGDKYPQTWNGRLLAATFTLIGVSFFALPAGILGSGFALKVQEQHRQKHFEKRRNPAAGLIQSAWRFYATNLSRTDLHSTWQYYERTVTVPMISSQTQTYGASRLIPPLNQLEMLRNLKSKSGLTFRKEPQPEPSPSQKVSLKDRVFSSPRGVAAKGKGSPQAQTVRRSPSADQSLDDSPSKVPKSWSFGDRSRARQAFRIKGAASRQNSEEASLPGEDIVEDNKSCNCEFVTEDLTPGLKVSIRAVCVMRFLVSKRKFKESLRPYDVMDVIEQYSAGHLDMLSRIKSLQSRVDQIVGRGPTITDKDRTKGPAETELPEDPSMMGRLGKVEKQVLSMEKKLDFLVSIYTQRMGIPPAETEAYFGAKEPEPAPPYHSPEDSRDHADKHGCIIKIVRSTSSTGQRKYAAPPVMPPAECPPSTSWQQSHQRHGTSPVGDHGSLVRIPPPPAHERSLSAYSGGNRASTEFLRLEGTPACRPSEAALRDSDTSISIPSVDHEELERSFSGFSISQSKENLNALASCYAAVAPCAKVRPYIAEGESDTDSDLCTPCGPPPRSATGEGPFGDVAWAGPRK
# Sequence (O88944 whole entry): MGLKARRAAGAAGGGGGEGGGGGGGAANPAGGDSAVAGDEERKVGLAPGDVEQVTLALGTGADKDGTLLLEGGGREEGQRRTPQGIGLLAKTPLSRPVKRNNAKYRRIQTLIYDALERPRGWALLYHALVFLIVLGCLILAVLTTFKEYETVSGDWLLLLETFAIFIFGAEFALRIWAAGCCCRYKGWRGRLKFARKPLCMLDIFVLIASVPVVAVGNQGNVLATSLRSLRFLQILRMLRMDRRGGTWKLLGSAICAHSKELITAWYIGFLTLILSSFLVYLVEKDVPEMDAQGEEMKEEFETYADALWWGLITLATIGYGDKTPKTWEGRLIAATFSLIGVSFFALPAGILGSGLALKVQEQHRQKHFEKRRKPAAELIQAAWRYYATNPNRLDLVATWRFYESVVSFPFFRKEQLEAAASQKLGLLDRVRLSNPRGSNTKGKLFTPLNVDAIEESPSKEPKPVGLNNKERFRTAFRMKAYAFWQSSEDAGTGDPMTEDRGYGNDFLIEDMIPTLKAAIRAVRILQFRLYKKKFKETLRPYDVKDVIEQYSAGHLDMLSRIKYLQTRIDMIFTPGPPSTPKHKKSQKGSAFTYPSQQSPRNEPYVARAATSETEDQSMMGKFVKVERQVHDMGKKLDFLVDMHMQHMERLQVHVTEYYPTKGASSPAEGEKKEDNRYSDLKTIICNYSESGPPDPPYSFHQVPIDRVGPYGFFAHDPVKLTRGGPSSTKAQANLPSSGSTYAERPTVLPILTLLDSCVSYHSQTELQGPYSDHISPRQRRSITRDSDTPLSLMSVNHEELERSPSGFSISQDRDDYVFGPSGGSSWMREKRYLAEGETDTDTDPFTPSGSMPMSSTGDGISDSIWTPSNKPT
# Method: whole-cell patch clamp of native IK(M), plus cell-attached single KM channel recordings in GH3 cells
Measured metric: IC50 (µM)
Value expressed in µM; do not type the unit.

What value of IC50 has been recorded for this entry: CC(C)NCC(O)COc1ccc(COCCOC(C)C)cc1 (racemic)
1.21
